- TARGET_DESC: 5'-AMP-activated protein kinase catalytic subunit alpha-2 (Homo sapiens) (UniProt P54646);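 further: mean inhibition measured on the AMPK complex of alpha2, beta1 and gamma1 subunits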
- Sequence (P54646 whole entry, looked up): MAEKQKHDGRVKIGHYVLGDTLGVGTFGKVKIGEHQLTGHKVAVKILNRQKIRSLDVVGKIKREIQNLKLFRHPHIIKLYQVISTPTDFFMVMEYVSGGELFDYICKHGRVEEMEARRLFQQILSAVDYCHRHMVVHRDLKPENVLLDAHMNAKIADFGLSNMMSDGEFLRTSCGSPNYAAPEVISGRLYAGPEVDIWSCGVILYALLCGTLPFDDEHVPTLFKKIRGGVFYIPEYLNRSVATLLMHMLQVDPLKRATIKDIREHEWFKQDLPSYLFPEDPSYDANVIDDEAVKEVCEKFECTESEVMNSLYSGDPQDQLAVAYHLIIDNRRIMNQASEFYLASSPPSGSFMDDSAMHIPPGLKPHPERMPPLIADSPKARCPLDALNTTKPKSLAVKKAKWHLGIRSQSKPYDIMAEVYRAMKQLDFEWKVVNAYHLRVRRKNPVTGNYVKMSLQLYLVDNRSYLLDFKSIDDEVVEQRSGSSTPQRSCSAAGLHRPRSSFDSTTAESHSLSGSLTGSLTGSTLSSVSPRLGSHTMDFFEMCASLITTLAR
- PROTOCOL_CONDITIONS: at 0.1 µM
- Description: GSK_PKIS: AMPKA2 (A2B1G1) mean inhibition at 0.1 uM [Nanosyn]
Collected inhibition values appear next to each entry.
Please give a number only; it is taken to be in %.

See these solved cases before continuing.
COMPOUND	RESULT_VALUE
NS(=O)(=O)c1cccc(N/C=C2\C(=O)Nc3ccccc32)c1	4.65
CS(=O)(=O)CCNCc1ccc(-c2ccc3ncnc(Nc4ccc(OCc5ccccc5)cc4)c3c2)o1	2.07
COc1cc2c(cc1Nc1nc(Nc3cccc(F)c3C(N)=O)c3cc[nH]c3n1)N(C(=O)CN1CCN(C(C)C)CC1)CC2	5.43
Cc1cc(O)cc(C)c1/C=C/c1cncc(C(N)=O)c1	2.5
O=C(O[C@H]1CN[C@H](C#Cc2cc3ncnc(Nc4ccc5c(cnn5Cc5ccccc5)c4)c3s2)C1)N1CCOCC1	2.29

Now take the following compound into account.
Record CCn1c(-c2nonc2N)nc2cncc(C(=O)NCCNC)c21 : what is its inhibition with 5'-AMP-activated protein kinase catalytic subunit alpha-2 (Homo sapiens) (UniProt P54646)?
2.58
